# MEASURED_ON: Protein cereblon/Cyclin-dependent kinase 9 (Homo sapiens, UniProt P50750+Q96SW2)
# Sequence (P50750 whole entry, looked up): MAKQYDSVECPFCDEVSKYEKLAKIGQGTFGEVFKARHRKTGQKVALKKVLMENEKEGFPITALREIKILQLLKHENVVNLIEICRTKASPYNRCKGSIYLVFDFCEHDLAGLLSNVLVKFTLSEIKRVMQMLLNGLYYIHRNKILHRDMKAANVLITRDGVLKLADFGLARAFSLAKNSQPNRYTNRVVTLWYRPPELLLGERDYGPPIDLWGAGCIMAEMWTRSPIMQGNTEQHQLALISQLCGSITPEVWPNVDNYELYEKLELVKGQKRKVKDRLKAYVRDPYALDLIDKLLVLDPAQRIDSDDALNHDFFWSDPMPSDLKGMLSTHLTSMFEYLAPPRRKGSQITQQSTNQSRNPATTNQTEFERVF
# Sequence (Q96SW2 whole entry, looked up): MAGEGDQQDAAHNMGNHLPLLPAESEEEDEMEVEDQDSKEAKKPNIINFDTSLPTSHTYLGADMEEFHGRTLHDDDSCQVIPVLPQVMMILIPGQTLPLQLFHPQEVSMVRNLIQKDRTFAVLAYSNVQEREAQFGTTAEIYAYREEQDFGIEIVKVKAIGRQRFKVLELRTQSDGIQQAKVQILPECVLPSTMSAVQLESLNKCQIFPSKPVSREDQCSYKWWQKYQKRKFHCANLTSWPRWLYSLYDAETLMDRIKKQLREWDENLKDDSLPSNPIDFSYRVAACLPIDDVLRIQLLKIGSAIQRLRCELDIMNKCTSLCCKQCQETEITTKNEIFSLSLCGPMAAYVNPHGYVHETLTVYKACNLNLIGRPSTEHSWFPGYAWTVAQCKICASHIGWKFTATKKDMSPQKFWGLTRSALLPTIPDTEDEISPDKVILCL
# TEST: PROTAC activity at CRBN/CDK9 in human MOLM-13 cells assessed as induction of CDK9 degradation by measuring maximal efficacy at 0.01 to 5 uM incubated for 6 hrs by Western blot analysis relative to control
# APPLIED_CONDITIONS: dose 0.01-5 µM
MEASURED_METRIC: Emax (%)
The reply should contain only the number, in %.

COMPOUND: O=C1CCC(N2C(=O)c3cccc(OCCCCn4cc(CCCCCCN5CCC(NC(=O)c6n[nH]cc6NC(=O)c6c(Cl)cccc6Cl)CC5)nn4)c3C2=O)C(=O)N1 (centres undefined)
Emax (%): 75.3
//
COMPOUND: O=C1CCC(N2C(=O)c3cccc(OCCCCCCCCn4cc(CCCCCCN5CCC(NC(=O)c6n[nH]cc6NC(=O)c6c(Cl)cccc6Cl)CC5)nn4)c3C2=O)C(=O)N1 (centres undefined)
Emax (%): 86.2

Challenge: Please state recorded Emax (tested on Protein cereblon/Cyclin-dependent kinase 9 (Homo sapiens, UniProt P50750+Q96SW2)) of O=C1CCC(N2C(=O)c3cccc(OCCCCn4cc(CCCCCN5CCC(NC(=O)c6n[nH]cc6NC(=O)c6c(Cl)cccc6Cl)CC5)nn4)c3C2=O)C(=O)N1 (centres undefined)
Response given: 58.6

Challenge: Could you do the same for O=C1CCC(N2C(=O)c3cccc(OCCCCCn4cc(CCCCCN5CCC(NC(=O)c6n[nH]cc6NC(=O)c6c(Cl)cccc6Cl)CC5)nn4)c3C2=O)C(=O)N1 (centres undefined) , please?
Response given: 68.5
